Value source: patent US20230265151A1

# target of assay: T1, human GIP receptor (human, UniProt P48546 22-466)
# T1 sequence (looked up): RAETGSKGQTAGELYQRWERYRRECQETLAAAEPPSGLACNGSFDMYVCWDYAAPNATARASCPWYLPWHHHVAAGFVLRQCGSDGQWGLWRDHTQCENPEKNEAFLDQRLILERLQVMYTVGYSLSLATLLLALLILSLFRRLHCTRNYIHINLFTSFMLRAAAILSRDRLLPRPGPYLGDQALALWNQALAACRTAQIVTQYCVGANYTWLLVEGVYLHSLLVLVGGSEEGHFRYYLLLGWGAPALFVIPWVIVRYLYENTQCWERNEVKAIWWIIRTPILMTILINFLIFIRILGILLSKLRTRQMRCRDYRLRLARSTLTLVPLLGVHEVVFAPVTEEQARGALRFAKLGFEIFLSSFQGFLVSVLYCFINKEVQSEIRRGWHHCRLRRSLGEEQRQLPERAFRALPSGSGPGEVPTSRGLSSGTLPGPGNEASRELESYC
# test description: cell-based or functional assay
If the reported cAMP EC50 (1.0% HSA) equals or exceeds 1 nM, assign 1 (yes). If not, assign 0 (no).

Worked set:
INSERT INTO assay_data (binder, answer_label) VALUES
  ('YXEGTXTSDXSIXLDXKGQXEFIXXLIEGGKSSGAPPPS (Aib2, αMeF(2F)6, 4Pal10, αMeL13, Orn16, Aib20, D-Glu24, αMeY25; acylated K17, K31 (groups as in name); C-terminal amide)', '1 (yes)'),
  ('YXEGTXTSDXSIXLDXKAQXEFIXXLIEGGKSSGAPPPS (Aib2, αMeF(2F)6, Ac6c10, αMeL13, Orn16, Aib20, D-Glu24, αMeY25; acylated K17, K31 (groups as in name); C-terminal amide)', '0 (no)'),
  ('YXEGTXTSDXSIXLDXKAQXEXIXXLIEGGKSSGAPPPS (Aib2, αMeF6, 4Pal10, αMeL13, Orn16, Aib20, αMeF22, D-Glu24, αMeY25; acylated K17, K31 (groups as in name); C-terminal amide)', '0 (no)'),
  ('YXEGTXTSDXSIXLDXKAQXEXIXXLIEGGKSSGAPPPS (Aib2, αMeF(2F)6, 4Pal10, αMeL13, Orn16, Aib20, 3ClPhe22, D-Glu24, αMeY25; acylated K17, K31 (groups as in name); C-terminal amide)', '1 (yes)');

Next, consider the following binder.
query: Is cAMP EC50 (1.0% HSA) for YXEGTXTSDXSIXLDXIAQXKFIXXLIEGGKSSGAPPPS (Aib2, αMeF(2F)6, 4Pal10, αMeL13, Orn16, Aib20, D-Glu24, αMeY25; acylated K21, K31 (groups as in name); C-terminal amide) at or above 1 nM?
result: 1 (yes)
